B1: CLCN6 (parent)
chain: ILRSQLVTLLVRGVCYSESQSSAS

Variants of: B1
Run description: protein stability index of a GFP-peptide fusion (GPS, HEK-293T) (PSI 1-6); higher = more stable;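 further: lentivirally expressed fusions sorted by FACS into six bins by GFP to DsRed ratio, PSI derived from sequencing read proportions per bin multiplied by bin number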
Experimental context: c terminus: a fixed tail appended
Please assign a class to every record based on measured protein stability index, with ranges bucket 1: < 2; bucket 2: ≥ 2 and < 3; bucket 3: ≥ 3

S21M
bucket 2

For the next question, use this variant.
Dear colleague, I would appreciate it if you could identify the bin for V7H and reply at your convenience.
bucket 2
